assay: yeast display, Sf9 membrane polyspecificity reagent, FACS + sequencing; frameworks hold sequencing errors
Measurement kind: polyreactivity (PSR sort gate)

Known results for sequences:
- Residue sequence: "QVQLVESCGGLVQAGGSLRLSCAASGSTFTPNAMGWNRQAPGKERELVAAIRGLNGRTYYADSVKGRFTISRDNAKNTVYLQMNSLKPEDTAVYYCAAGGYSYYFAWHDYWGQGTQVTVSS"
  Measurement kind: "polyreactivity (PSR sort gate)"
  Observed: "low polyreactivity"
- Residue sequence: "QVQLVESGGGFVQAGGSLRVSCAASGSIFRPDAMGWYRPAPGKERELVAAITWSGGRTYYADSVKGRFTISRDNAKNTVDLQMNSLKPEDTAVYYCAARPRYYYWFKSGTRVEYDYWGQGTQVTVSS"
  Measurement kind: "polyreactivity (PSR sort gate)"
  Observed: "high polyreactivity"
- Residue sequence: "QVQLVESGGGLVQAGGSLRLSCAASGSTFTYYAMGWYRQAPGKERELVADISRDGGSTYYADSVKGRFTISRDNAKNTVNLQMNSLKPEDTAVYYCATDMVYKYDYWGQGTQVTVSS"
  Measurement kind: "polyreactivity (PSR sort gate)"
  Observed: "low polyreactivity"
- Residue sequence: "QVQLVESGGGLVQAGGSLRLSCASSGITFRYYAMGWYRQAPGKERELVAAISDGGSTNYADSVKGRFTISRDNAKNTVYLQMNSLKPEDTAVYYCAADYRYLFDYWGQGTQVTVSS"
  Measurement kind: "polyreactivity (PSR sort gate)"
  Observed: "high polyreactivity"
- Residue sequence: "QVQLVESGGGLVQAGGSLRLSCAASGSTLWIYAMGWYRQAPGKERELVAAISWSTGRTYYADSVKGRFTISRDNAKNTVYLQMNSLKPVDTAVYYCNAGPQHNTLKLFYYWGQGTQVTVSS"
  Measurement kind: "polyreactivity (PSR sort gate)"
  Observed: "low polyreactivity"

Can you look up the measured polyreactivity (PSR sort gate) of `QVQLVESGGGLVQAGGSLRLSCAASGSTFGYNTMGWYRQAPGNERELVAAITGTGRTNYADSVKGRFTISRDNAKNTVYLQMNRLNPEDTAVYYCNARQAGTRYKYGYYGRYYWGQGTQVTVSS` for me?
high polyreactivity

Can you look up the measured polyreactivity (PSR sort gate) of `QVQLVESGGGLVQAGGSLRLSCAASGSTFSFYAMGWYRQAPGQERELVAAIRAGTRTYYADSVKGRFTISRDNAKNTVYLQMNSLKPEDTAVYYCAATRRRYPYYYWGQGTQVTVSS` for me?
high polyreactivity

Can you look up the measured polyreactivity (PSR sort gate) of `QVQLVESGGGLVQAGGSLRLSCAASGFTFTYYAMGWYRQAPGKERELVAAITKSGGSTYYADSVKGRFTISRDNAKNTVYFQMNSLKPEDTAVYYCAADTRYGRERYYWGQGTQVTVSS` for me?
high polyreactivity

---

assay: yeast display, Sf9 membrane polyspecificity reagent, FACS + sequencing; frameworks hold sequencing errors
Measurement kind: polyreactivity (PSR sort gate)

Known results for sequences:
- Residue sequence: "QVQLVESVGGLVQAGGSLRLSCASSGSIFEGSAMGRYRQAPGKEMELVASISSGGSTNYADSVKGRFTISRDNAKNTVYLQMNSLKPEDTAVYYCAAEWVWYKWEFEYWGQGTKVTVSS"
  polyreactivity (PSR sort gate): "high polyreactivity"
- Residue sequence: "QVQLVESGGGLVQAGGSLRLSCAASGSIFYPNAMGWYRQAPGKERELVAAINGGGSTYYADSVKGRFTISRDNAKNTVYLQMNSLKPEDTAVYYCAADSNDVYYDTPSYDYWGQGTQVTVSS"
  polyreactivity (PSR sort gate): "low polyreactivity"
- Residue sequence: "QEQLVESGGGLVQAGGSLRLSCAASGGTFGSNTRGWYRQAPGKERELVAAITSGVSTNYADSVKGRFTISRDNAKITVYLQMNRLKPEDTAVYYCAKELWSEEYETIITYYGFDYLGQGTQVTVSS"
  polyreactivity (PSR sort gate): "low polyreactivity"
- Residue sequence: "QVQLVESGGGLVQAGGSLRLSCAASGSIFIGYAIGWYRQAPGKERELVAAITNGGRTYFADSVKGRFTISRDNAKNTVYLQMISLKPEDTAVYYCAAVPSQTYRRTPYLWHDYWGQGTQVTVSS"
  polyreactivity (PSR sort gate): "high polyreactivity"
- Residue sequence: "QVQLVESGGGLVQAGGSLRLSCAASGFTFSPYVMGWYRQAPGKERELVATITAGGSSTFYADSVKGRFTISRDNAKNTVYLQMNSLKPEDTAVYYCNTVSPSFVYESTSDRFDYWGQGTQVTVSS"
  polyreactivity (PSR sort gate): "low polyreactivity"
- Residue sequence: "QVQLVESGGGLLQAGGSLRLICAASGITFRYYTMGWYRQAPVKETELVAAITWSGSSTYYADSVKGRFTISRDNAKNTVYLQMNSLKPEDTAVYYCAKPYHQRSAKVDYWGQGTQVTVSS"
  polyreactivity (PSR sort gate): "low polyreactivity"
- Residue sequence: "QVQLVESGGGLVHAGGSLRLSCAASGSIFGDYAMGWYRQAPGKERELVAAITRRGSTYYADSVKGRFTISRDNAKNTVYLQMNSLIPEDTAVFYCAKDVYPGRAGRPGIPYPYDYWGQGTQVTVSS"
  polyreactivity (PSR sort gate): "low polyreactivity"
- Residue sequence: "QVQLVESGGGLVQAGGSLRLSCAASGSTFLYYAMGWYRQEPGKEREFVASISGSGGSTNYADSVKGRFTISRDNAKNTVYLQMNSLKPEDTAVYYCAKEYVTEFQGYYYWGQGTQVTVSS"
  polyreactivity (PSR sort gate): "low polyreactivity"

Can you look up the measured polyreactivity (PSR sort gate) of `QVQLVESGGGLVQAGGSLRLSCAASGSIFYSYAMGWYRQAPGKERELVADITITGSTYYADSVKGRFTISRDNAKNTVYLQMNSLKPEDTAVYYCDAVLAPGGYDYWGQGTQVTVSS` for me?
low polyreactivity

Can you look up the measured polyreactivity (PSR sort gate) of `QVQLVESGGGLVQAGGSLRLSCAASGSTSARYAMGWYRQAPGKERELVATITRSGTTKYADSVKGRFTISRDNAKNTVYLQMNSLKPEDTAVYYCNTDTYFPLYDYWGQGTQVTVSS` for me?
low polyreactivity

Can you look up the measured polyreactivity (PSR sort gate) of `QVQLVESGGGLVQAGGSLRLSCAASGLIIRWYAMGWYRQAPGKERELVAAITRAGSTNYADSVKWRFTISRDNAKNTVYLQMNSLKPEDTAVYYCAAVAVELASEYDYWGQGTQVTVSS` for me?
low polyreactivity
